Below, each entry is listed with its recorded pKd.
target entity: T1, 2PT-NBD1 (human CFTR NBD1, residues 387–646, S492P/A534P/I539T) (Homo sapiens (human), CFTR M470 allele …, S492P | A534P | I539T, biotin (in the ELISA; site not stated))
T1 construct: In the crystals treated with papain (6GJU) or subtilisin (6GJQ) parts of the domain were cleaved off (6GJU lacks residues 389–447); source: E. coli BL21(DE3) pLysS, purified (HisTrap, Ulp1 cleavage, Superdex 200); not shown: His6, N-terminal, cleaved; SUMO, N-terminal, cleaved
T1 sequence (P13569 387-646 V470M/S492P/A534P/I539T): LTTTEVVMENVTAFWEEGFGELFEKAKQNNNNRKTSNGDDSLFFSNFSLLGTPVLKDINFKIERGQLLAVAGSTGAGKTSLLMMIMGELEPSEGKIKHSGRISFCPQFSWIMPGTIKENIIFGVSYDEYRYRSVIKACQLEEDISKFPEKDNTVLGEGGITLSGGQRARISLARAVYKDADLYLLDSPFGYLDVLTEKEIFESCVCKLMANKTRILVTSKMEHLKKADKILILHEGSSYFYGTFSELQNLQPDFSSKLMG
protocol notes: ITC; nanobody titrated into 2PT-NBD1; NanoITC, 20 °C; 20 mM Hepes pH 7.5, 150 mM NaCl, 10% glycerol, 10% ethylene glycol, 2 mM ATP, 3 mM MgCl2; one-site binding model
experimental conditions: both partners purified
pKd (log units): -log10 of the concentration in mol/L.

Observe how each entry below is paired with its result.
nanobody T8 (VHH, pXAP100 vector, C-terminal His6-cMyc tag; source: E. coli BL21(DE3) pLysS, periplasmic extract, purified (Ni-NTA, SEC); not shown: His6, C-terminal, kept; cMyc, C-terminal, kept) VHH: QVQLQESGGGLVQPGGSLRLSCAASGSTSSINAMGWYRQAPGKQREPVAISSSGGDTRYAEPVKGRFTISRDNAQNKVYLQMNSLKPEDTAVYYCWLNWGRTSVNSWGQGTQVTVSS; 7.41
nanobody T27 (VHH, pXAP100 vector, C-terminal His6-cMyc tag; source: E. coli BL21(DE3) pLysS, periplasmic extract, purified (Ni-NTA, SEC); not shown: His6, C-terminal, kept; cMyc, C-terminal, kept) VHH: QVQLQESGGGLEQPGGSLRLSCATSGVIFGINAMGWYRQAPGKQRELVATFTSGGSTNYADFVEGRFTISRDNAKNTVYLQMNGLRPEDTAVYYCHATVVVSRYGLTYDYWGQGTQVTVSS; 7.60
nanobody T4 (VHH, pXAP100 vector, C-terminal His6-cMyc tag; source: E. coli BL21(DE3) pLysS, periplasmic extract, purified (Ni-NTA, SEC); not shown: His6, C-terminal, kept; cMyc, C-terminal, kept) VHH: QVQLQESGGGLVQAGGSLRLSCAASGSTFAIIAMGWYRQAPGKQRELVAVISTGDTRYADSVKGRFTISRDNAKNTVYLQMDSLRPEDTAVYYCNAAVQVRDYRNYWGQGTQVTVSS; 7.42
nanobody T2a (VHH, pXAP100 vector, C-terminal His6-cMyc tag; source: E. coli BL21(DE3) pLysS, periplasmic extract, purified (Ni-NTA, SEC); not shown: His6, C-terminal, kept; cMyc, C-terminal, kept) VHH: QVQLQESGGGLVQAGGSLRLSCAASGSIFRIDAMGWYRQAPGKQRELVAHSTSGGSTDYADSVKGRFTISRDNAKNTVYLQMNSLKPEDTAVYYCNADVRTRWYASNNYWGQGTQVTVSS; 7.27

For the next question, use this binder.
Query: Need pKd, item nanobody G3a (VHH, pXAP100 vector, C-terminal His6-cMyc tag; source: E. coli BL21(DE3) pLysS, periplasmic extract, purified (Ni-NTA, SEC); not shown: His6, C-terminal, kept; cMyc, C-terminal, kept) VHH: QVQLQESGGGLVQAGGSLRLSCTASGRAFSWYVMGWFRQAPGKEREFVATVSGNGSRRDYADSVKGRFTISRDNAKNTVYLQMNSLKPEDTAVYYCAASSTYYYTDPEKYDYWGQGTQVTVSS
Reply: 5.96
